- Assay: In vivo pharmacokinetic study in rats
- Design: species or system Sprague-Dawley rats
- Details: male, Sprague-Dawley, plasma, iv; rat, 10 mg kg^−1 i.v.
- Protocol: Encouraged by these promising in vitro results, an in vivo pharmacokinetic study was conducted for H2 and L2 in mice (1 mg kg^−1, i. v.) and in rats for L2 (10 mg kg^−1, i. v.). Compound concentrations were monitored in plasma and urine (Figure 6). […] In fact, concentrations above the K ds were detected over the entire observation period of 5 h. […] In rats, higher amounts of L2 were detected both in plasma and urine, not solely corresponding to the 10‐fold increased dose. […]
Measured quantity: clearance (mL/min/kg)

O=C(CCc1ccc(O[C@@H]2O[C@H](CO)[C@H](O)[C@H](O)[C@H]2O)cc1)Nc1ccc(CCc2ccc(NC(=O)CCc3ccc(O[C@@H]4O[C@H](CO)[C@H](O)[C@H](O)[C@H]4O)cc3)cc2S(=O)(=O)O)c(S(=O)(=O)O)c1 [Compound L2] | 9.84
